# Lookup of reported pest or weed control at 125 g/ha keyed by entry
Test system: Setaria faberi (SETFA)
Test: Post-emergence herbicidal activity, glasshouse pot test
Assay type: in vivo
Conditions: 360 h, rate 125 g/ha, evaluated 15 days later, 100=total damage to plant, 0=no damage to plant
The reply should contain only the number, in %.

Recorded results for 8 compounds are shown here.
Name the recorded pest or weed control at 125 g/ha of the item CCc1ccc(-c2ccc(Cl)c(Cl)c2)cc1C1=C(O)[C@H]2[C@@H](C1=O)[C@]1(C)CC[C@@]2(C)O1 in your answer. 100

Read the entry Cc1cc(-c2ccc(C(F)(F)F)cc2)cc(C)c1C1C(=O)[C@@H]2[C@H](C1=O)[C@H]1CC[C@@H]2O1 (stereo partly drawn) and write its reported pest or weed control at 125 g/ha. 100

Output pest or weed control at 125 g/ha of CCc1ccc(-c2ccc(Cl)cc2Cl)cc1C1=C(O)[C@H]2[C@@H](C1=O)[C@]1(C)CC[C@@]2(C)O1 100

Identify the reported pest or weed control at 125 g/ha for the following entry. CCc1ccc(-c2ccc(Cl)c(F)c2F)cc1C1=C(O)[C@H]2[C@@H](C1=O)[C@]1(C)CC[C@@]2(C)O1 80

Output pest or weed control at 125 g/ha of Cc1cc(-c2ccccc2)cc(C)c1C1=C(OC(=O)C(C)C)[C@H]2[C@@H](C1=O)[C@@H]1CC[C@H]2O1 [Compound P2] 100

Tell me its pest or weed control at 125 g/ha given CCc1ccc(-c2ccc(Cl)cc2F)cc1C1=C(O)[C@H]2[C@@H](C1=O)[C@@H]1CC[C@H]2O1 as the entry. 100

Read the entry Cc1cc(-c2ccccc2)cc(C)c1C1=C(OC(=O)c2c(C)noc2C)[C@H]2[C@@H](C1=O)[C@@H]1CC[C@H]2O1 and write its reported pest or weed control at 125 g/ha. 80

Quote pest or weed control at 125 g/ha reported for CCc1ccc(-c2ccc(Cl)cc2)cc1C1=C(O)[C@H]2[C@@H](C1=O)[C@@H]1C=C[C@H]2O1 (racemic) please. 100

Now, please, on to the next compound.
Consider the compound CC(=O)OC1=C(c2c(C)cc(-c3ccccc3)cc2C)C(=O)[C@@H]2[C@H]1[C@H]1CC[C@@H]2O1 and give its recorded pest or weed control at 125 g/ha. 90
